From: patent US20210269480A1

# TGT: T1, human Nectin-4 (human, UniProt Q96NY8 32-349)
# T1 construct: a Gly32-Ser349 FLAG construct is described only under the SPR assay; also called PVRL4
# T1 sequence (looked up): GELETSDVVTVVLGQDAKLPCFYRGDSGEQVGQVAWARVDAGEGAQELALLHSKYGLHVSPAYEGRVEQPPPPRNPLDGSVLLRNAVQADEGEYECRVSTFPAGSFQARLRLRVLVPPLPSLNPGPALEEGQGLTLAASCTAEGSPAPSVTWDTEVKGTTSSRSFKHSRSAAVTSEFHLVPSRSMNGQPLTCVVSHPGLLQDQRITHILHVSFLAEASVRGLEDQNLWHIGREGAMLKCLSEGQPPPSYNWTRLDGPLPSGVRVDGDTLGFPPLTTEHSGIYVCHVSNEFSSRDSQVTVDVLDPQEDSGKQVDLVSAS
# TEST_DETAILS: FP competition, tracer SEQ ID NO 217
*1 amine or outer side, *2 acyl side, *3 side chain or, on linkers, in order; H or OH if unused. Bridges are numbered along the chain shown (N, C = ends). Where no end group is shown, it is not given here. [ ]: non-standard residue; d: D form. TATA = O=C(CC[*:1])N1CN(C(=O)CC[*:2])CN(C(=O)CC[*:3])C1; Ala(4-thiazolyl) = N[C@@H](Cc1cscn1)C(=O)O; 1Nal = N[C@@H](Cc1cccc2ccccc12)C(=O)O; Hyp = O=C(O)[C@@H]1C[C@@H](O)CN1; hArg = N=C(N)NCCCC[C@H](N)C(=O)O; Nle = CCCC[C@H](N)C(=O)O; βAla = NCCC(=O)O; Sar = CNCC(=O)O
RECORDED_METRIC: Ki (nM)

{"BINDER": "ACPFGCMKNWSWPIWCTAK (linker 2-6-16 via TATA, also called 80-09-02-T01-N017) [BCY7347]", "Ki (nM)": 36.1}
{"BINDER": "Ac-CGFGCMKNWSWPIWC (linker 1-5-15 via TATA) [BCY7607]", "Ki (nM)": 77}
{"BINDER": "Ac-QAWCAPLSDYWCNRIC (linker 4-12-16 via TATA) [BCY7623]", "Ki (nM)": 21}
{"BINDER": "Ac-CP[1Nal][dR]CM[hArg]DWTTP[Hyp]WC (linker 1-5-15 via TATA) [BCY8187]", "Ki (nM)": 5}
{"BINDER": "Ac-CPF[dD]CMKNWSTPIWC (linker 1-5-15 via TATA) [BCY7819]", "Ki (nM)": 12}

I. [βAla][Sar][Sar][Sar][Sar][Sar]CPF[dA]CM[hArg]NWSWPIWC (linker 7-11-21 via TATA) [BCY7557]
II. XACPFGCMKNWSWPIWCA (N-terminal X = 1-Nal; TATA on 3 Cys, also called 80-09-02-N009) [BCY7420]
III. Ac-CPFGCMKNWSYPIWC (linker 1-5-15 via TATA) [BCY7590]
IV. Ac-CP[1Nal][dD]CM[hArg]NWSTPIWC (linker 1-5-15 via TATA) [BCY8030]
V. Ac-CPF[dD]CM[hArg][Ala(4-thiazolyl)]WSTPIWC (linker 1-5-15 via TATA) [BCY7879]
Q: Sort entries by Ki from minimum to maximum value. Return value: ordered labels per request.
Result: IV, V, I, III, II

a. HDSCPFGC[Nle]KSWSWPIWCA (linker 4-8-18 via TATA) [BCY7274]
b. Ac-QKWCAALSDYWCNRIC (linker 4-12-16 via TATA) [BCY7625]
Q: Compare a and b by numeric Ki and name the larger one. Select an item and report its label.
Result: b
(b: 141 nM, a: 90.5 nM)
